biological target: T1, SARS-CoV-2 spike trimer S (Wuhan, SmT1) (SARS-CoV-2 Wuhan); test: ELISA, coated antigen, apparent EC50
T1 construct: extracellular domain

BINDER	EC50 [nM]
NRCoV2-MRed03 VHH-Fc (Fc fusion, bivalent) EVQLVESGGGLVQPGGSLRLSCAAIGFTLDYYAIGWFRQAPGKEREGVSCISSSDGSTYYADSVKGRFTISRDNAKNTVYLQMNSLKPEDTAVYYCATDAFATCDSWYAQIAQYDFRGQGTQVTVSS	0.2
NRCoV2-02 VHH-Fc (Fc fusion, bivalent) EVQLVESGGGLVQAGGSLRLSCAASGFTFSNYAMNWVRQAPGKGLEWVSGISGRGDDTRYADSVKGRFTISRDNAKNTLFLQMRSLRPEDTGVYRCTKGPDLYYFGSGYSDRGQGTQVTVSS	0.1

Origin of the recorded values: patent US20240270826A1
